Assay: Cmax in healthy human subjects at 40 mg with water administered as single dose measured upto 24 hrs by LC-MS analysis
Type: ADME, organism-based
Design: dose 40 mg
Settings: in vivo, oral
READOUT NAME: Cmax (ng/mL)
Numbers only, in ng/mL.

-- ask Would you mind telling me what Cmax value was observed for CCC(C)(C)C(=O)O[C@H]1C[C@@H](C)C=C2C=C[C@H](C)[C@H](CC[C@@H]3C[C@@H](O)CC(=O)O3)[C@H]21 ?
-- reply 7.3

====

Test: Elimination half life in healthy human subjects at 40 mg with 200 ml grape fruit juice drug administered as single dose on day 3 of grape fruit juice challenge measured upto 24 hrs by LC-MS analysis
Format: ADME, organism-based
Conditions: in vivo, oral, read-out: beta t1/2 (converted)
READOUT NAME: half-life (h)
Give bare numbers, in h.

-- ask Would you mind telling me what half-life value was observed for CCC(C)(C)C(=O)O[C@H]1C[C@@H](C)C=C2C=C[C@H](C)[C@H](CC[C@@H]3C[C@@H](O)CC(=O)O3)[C@H]21 ?
-- reply 2
